As shown below, each of these sequences has a reported LD100 value.
# Test system: P. aeruginosa ATCC 10145
# condition: CFU assay, 10 mM NaP, pH 5.5, 0.25% glucose
Ends that are not written are not given here.
Reply numerically in µg/mL, unit not repeated.

sequenceData: HAHSGHGQSTQRGSRTAGRRGSGH [FLG-22082-2105]
measuredTarget: P. aeruginosa ATCC 10145
reportedEndpoint: LD100
readoutNumber: 0.075
--
sequenceData: QGSHHEQSVNRSGHSGSHHSHTTSQGR [FLG528-554]
measuredTarget: P. aeruginosa ATCC 10145
reportedEndpoint: LD100
readoutNumber: 0.59

Record HAHSGHGQSTQR [FLG-22082-2093] / P. aeruginosa ATCC 10145, LD100 recorded as 2.35

Record GRRGSGLGRSSSRGGRGSGSGR [HR 1-18,4H-4R] / P. aeruginosa ATCC 10145, LD100 recorded as 0.15
